Reported Tm values for the following sequences.
assay: melting temperature; fluorescence melt of hairpins on a sequencing array, two-state fit, raised by 9.35 °C to match UV melts; settings: sodium 0.088 M
Express it in °C; write the number only.

CGTACGGAAACGTGGACG ((((((....)))..)))
35.2
GCCGAAGGAAACTTCGAC (.(((((....))))).)
41
GTGCCGCGAAAGCGCAC (((.(((....))))))
69
GATCGGGAATCCGATC ((((((....))))))
64.8

Data request, read-out Tm, for GCCACCGAAAGGTTTGGC ((((((....)))..)))
48.7

Same question for GATCCCTATAGGGATC ((((((....)))))) please.
65.6

Subsequent entry: GATCTCAAACGAGATC ((((((....))))))
50.2

---

test: folding enthalpy; higher = less favourable; fluorescence melt of hairpins on a sequencing array, two-state fit; conditions: sodium 0.088 M
Label scheme, based on folding enthalpy: category 1 (below -100 kJ/mol), category 2 (-100 kJ/mol to below -70 kJ/mol), category 3 (-70 kJ/mol or more)

Worked examples, 5 sequences total:
GCATGGCGAAAGCAGTGC (((..((....))..)))
category 2
GCGGGGCGAAAGCCATGC ((..(((....)))..))
category 1
GTAGTACGAAAGTATTAC (((.(((....))).)))
category 1
GGCATCGAAAGATGCGCC ((((((....)))..)))
category 3
GAACGGAAACGTTC (((((....)))))
category 1

State the band of GGCCATGGAAACACAGCC (((..((....))..)))
category 3

Cool, now ATGCTGAAAAGCAT (((((....)))))
category 2

Again, but for GCGAGGGTCGC ((((...))))
category 3

What would you report for GTTTATGGAAACATAAGC (.(((((....))))).) ?
category 2

Same again, this time with GCGACCGAAAGGTGTCGC ((((((....)))..)))
category 1

How about this sequence: GAACGCACGAAAGTGTTC (((..(((....))))))
category 3

// next record GCGTAGGGAAACCTATGC ((.((((....)))).))
category 1

Another sequence: GGGAGCGGAAACGTTCCC ((((.((....)).))))
category 1

What do you have for GCCGCCGAAAGGCCTGGC ((((((....)))..))) ?
category 3

And what about the sequence GACCCCGCGAAAGCGGTC (((..(((....)))))) ?
category 3

Then this sequence: GCTTCGCGAAAGCCGAGC (((..((....))..)))
category 2

Consider next the sequence GGGAACGGAAACGTCCCC (((.(((....))).))) in the same way.
category 1

GTGCCGCGAAAGCGCAC (((.(((....)))))) ?
category 2

Same question for GCGGGGCGAAAGCGCTGC ((.(.((....)).).)) please.
category 1

---

experiment: folding enthalpy; higher = less favourable; fluorescence melt of hairpins on a sequencing array, two-state fit; settings: sodium 0.088 M
// reported folding enthalpy for each item listed
Field format: number, assumed kcal/mol, no unit text.

Examples with their reported folding enthalpy follow.
GTAAGACGAAAGTCTAC (((.(((....))))))
-14.6
GTCATCGAAAGATCGAC ((((((....))).)))
-22.1
GCCCCGCGAAAGCGCTGC ((..(((....)))..))
-9.38
GCCGGCCCGAAAGGGGGC (((..(((....))))))
-11.3
GAACTTGGAAACAGGTTC ((((.((....)).))))
-32.2

Entry GGTCACGGAAACGTGGCC ((.((((....)))).)) : reported folding enthalpy = ?
-37.2

---

# reported folding enthalpy; entries follow
assay: folding enthalpy; higher = less favourable; fluorescence melt of hairpins on a sequencing array, two-state fit; conditions: sodium 0.088 M
Numeric answer only, unit kcal/mol assumed.

# input sequence: GATGAACCGAAAGGTATC (((..(((....)))))) ; wanted: its folding enthalpy
-12.9

Thanks! And GCGTCGACGAAAGTCCGC (((..(((....)))))) ?
-22.2

Lookup GTAAGCGAAAGCTTGTAC ((((((....)))..)))
-11.7

Would you mind doing GATCGATGAATCGATC ((((((....)))))) as well?
-41.1

Another sequence to look at: GGTAGCCGAAAGGCGACC (((.(((....))).)))
-24.5

Let us now turn to GTGGATCGAAAGATACAC (((.(((....))).)))
-44.2

Then what about the sequence GCGTGACGACGC ((((....)))) ?
-27.2

Note, next up: GAGACCGGAAACAGTCTC (((((.(....).)))))
-27.5

// same read-out, input: GGCGTCGGAAACGACACC ((.((((....)))).))
-30.1

Also check GACCCCGAAAGGGGGGTC ((((((....)))..)))
-13.3

For GATCACTTTTGTGATC ((((((....)))))) then?
-43.1

Okay, and GAGGTTGGAAACAACTTC ((.((((....)))).)) ?
-24

# iterate: GATCCACTAGTGGATC ((((((....))))))
-40.6

// query: GGCGTCGAAAGACCGCC ((((((....))).)))
-34.5

---

Measured Tm of individual entries
test: melting temperature; fluorescence melt of hairpins on a sequencing array, two-state fit, raised by 9.35 °C to match UV melts; conditions: sodium 0.088 M
Write the number in °C without appending the unit.

Consider the following illustrative entries.
GGTTTCGAAAGAAAAACC ((((((....)))..)))
33.6
GCCCACGAAAGTGTCGGC ((((((....)))..)))
48.4
GGCTTTGGAAACAGAGTC (.((.((....)).)).)
29.3

// returns reported Tm for input CGCGGAACAATCCGCG ((((((....))))))
61.5

One more sequence: GATCTGGTAACAGATC ((((((....))))))
60.5

What would you report for GGTCGGAAACGACC (((((....))))) ?
68

Another sequence: GGTTGATCGAAAGATACC (((..(((....))))))
25.5

Check GATGGAGGAAACTTCATC ((((.((....)).)))) too.
39.6

Please give the result for GGGTCTCGAAAGAGCCCC (((.(((....))).))) too.
57.4

Can you handle GCTCCAGGAAACCGGAGC (((((.(....).))))) next?
54.3

---

assay: folding enthalpy; higher = less favourable; fluorescence melt of hairpins on a sequencing array, two-state fit; conditions: sodium 0.088 M
Reported folding enthalpy is given for each of the following sequences.
Entry rule: numbers only, all in kcal/mol.

Consider the following illustrative entries.
GATTCGCGAAAGCGATC (((.(((....))))))
-11.6
GAACCAGGAAACTGGTCC (.(((((....))))).)
-12.6
GTCCTTGGAAACGAGGAC (((((.(....).)))))
-40.8

# input for lookup
Query (sequence): CCCCTGAAAAGGGG (((((....))))) ; field requested: folding enthalpy
-25.4

---

assay: melting temperature; fluorescence melt of hairpins on a sequencing array, two-state fit, raised by 9.35 °C to match UV melts; details: sodium 0.088 M
measurement kind: Tm (°C)
Number only, in °C; omit the unit.

GCAGGCGAAAGCCCGTGC ((((((....)))..)))
43.6
GCCTGCGAAAGCACTGGC ((((((....)))..)))
49.9

Value lookup for Tm; key = GATCGCGGTTGCGATC ((((((....))))))
68.9

---

experiment: folding enthalpy; higher = less favourable; fluorescence melt of hairpins on a sequencing array, two-state fit; conditions: sodium 0.088 M
Listed here are sequences together with their documented folding enthalpy.
Write down the numeric answer in kcal/mol and omit the unit.

GCCTTCCGAAAGGATGGC (((.(((....))).)))
-42.1
GGCGTGGGAAACCATGCC (((.(((....))).)))
-44.5

Attention now shifts to the item below.
Param item = GTATTCCCGAAAGGGTAC (((..(((....)))))) ; retrieve measured folding enthalpy.
-8.03

---

assay: melting temperature; fluorescence melt of hairpins on a sequencing array, two-state fit, raised by 9.35 °C to match UV melts; details: sodium 0.088 M
Label yes when Tm is strictly below 40 °C; otherwise label no.

Previously resolved entries follow.
GTAGACGAAAGTCGGTAC ((((((....)))..)))
yes
GTGTCCGAAAGGAGTCAC ((((((....)))..)))
yes
GCTAGGGGAAACCTTAGC ((((.((....)).))))
no
GCCGTCGAAAGACGTGGC ((((((....)))..)))
no
GATCCTTGAAAGGATC ((((((....))))))
no

Lab log: compare recorded Tm with 40 °C; is it strictly lower for GCAAGGGAAACCTTGC ((((((....)))))) ?
no

What do you get for GCGCTTGCGAAAGCACGC (((..(((....)))))) ?
no

Field entry: GCAGGTGGAAACGTCTGC ((((..(....)..))))
no

Record: GATCTTGATTAAGATC ((((((....))))))
no
